Listed here: items and their measured Percent Effect.
- assayed system: AMP-activated protein kinase, AMPK (Homo sapiens) (UniProt P54646+O43741+P54619+Q9UGJ0+Q9Y478+Q13131+Q9UGI9)
- test summary: AMP-dependent Kinase enzyme assay. An in vitro enzyme assay that detects ADP turnover that is directly proportional to AMPK activity. This uses naive AMPK that is activated during the assay with MK-8722
- Format: functional
- Parameters: scale not given: direction of the effect not stated beside the values
- conditions used: 30 µM
reported property: Percent Effect (%)

compound: Cc1ccc(-c2nnn(CCN3C(=O)CCC3=O)n2)cc1
units symbol: %
observed value: -8.21
//
compound: Cn1cccc1CNCC1CCCn2cc(C(C)(C)C)nc21 (configuration not stated)
units symbol: %
observed value: -0.856
//
compound: Cc1cc(C2CCCN(Cc3cccnc3)C2)n[nH]1 (configuration not stated)
units symbol: %
observed value: -0.765
//
compound: Cc1cc(C)n(C2CN(c3nc(-c4ccncc4)nc4c3CCC4)C2)n1
units symbol: %
observed value: 2.99
//
compound: CCOCC(=O)N1CCC(C)(c2nccs2)CC1
units symbol: %
observed value: 6.62
//
compound: NC(=O)C(NC1CCN(CC2CCCCC2)CC1)c1ccccc1 (configuration not stated)
units symbol: %
observed value: 0.144
//
compound: CN(CCc1noc(C2CC2)n1)C(=O)C1(N2CCCC2)CCCC1
units symbol: %
observed value: -3.61
//
compound: N#Cc1cccc(N2CCC(CO)(CCOc3ccccc3)CC2)n1
units symbol: %
observed value: 3.85
//
compound: CCS(=O)(=O)NCC(=O)NC1(C)CCc2ccccc2C1 (configuration not stated)
units symbol: %
observed value: -3.96
//
compound: COc1ncc(NCc2ccsc2)cc1C(N)=O
units symbol: %
observed value: 5.38
//
compound: Cc1ccc2nc(CN3CCCCC3C(=O)N3CCOCC3)cn2c1 (configuration not stated)
units symbol: %
observed value: 8.07
//
compound: Cc1nn(C)c2nc(N3CCCC3c3nccs3)sc12 (configuration not stated)
units symbol: %
observed value: -1.47
